Field: pIC50. Provide a value for each of the molecules that follow.
# target under test: PI3K (Homo sapiens, UniProt P42336)
# Sequence (P42336 whole entry): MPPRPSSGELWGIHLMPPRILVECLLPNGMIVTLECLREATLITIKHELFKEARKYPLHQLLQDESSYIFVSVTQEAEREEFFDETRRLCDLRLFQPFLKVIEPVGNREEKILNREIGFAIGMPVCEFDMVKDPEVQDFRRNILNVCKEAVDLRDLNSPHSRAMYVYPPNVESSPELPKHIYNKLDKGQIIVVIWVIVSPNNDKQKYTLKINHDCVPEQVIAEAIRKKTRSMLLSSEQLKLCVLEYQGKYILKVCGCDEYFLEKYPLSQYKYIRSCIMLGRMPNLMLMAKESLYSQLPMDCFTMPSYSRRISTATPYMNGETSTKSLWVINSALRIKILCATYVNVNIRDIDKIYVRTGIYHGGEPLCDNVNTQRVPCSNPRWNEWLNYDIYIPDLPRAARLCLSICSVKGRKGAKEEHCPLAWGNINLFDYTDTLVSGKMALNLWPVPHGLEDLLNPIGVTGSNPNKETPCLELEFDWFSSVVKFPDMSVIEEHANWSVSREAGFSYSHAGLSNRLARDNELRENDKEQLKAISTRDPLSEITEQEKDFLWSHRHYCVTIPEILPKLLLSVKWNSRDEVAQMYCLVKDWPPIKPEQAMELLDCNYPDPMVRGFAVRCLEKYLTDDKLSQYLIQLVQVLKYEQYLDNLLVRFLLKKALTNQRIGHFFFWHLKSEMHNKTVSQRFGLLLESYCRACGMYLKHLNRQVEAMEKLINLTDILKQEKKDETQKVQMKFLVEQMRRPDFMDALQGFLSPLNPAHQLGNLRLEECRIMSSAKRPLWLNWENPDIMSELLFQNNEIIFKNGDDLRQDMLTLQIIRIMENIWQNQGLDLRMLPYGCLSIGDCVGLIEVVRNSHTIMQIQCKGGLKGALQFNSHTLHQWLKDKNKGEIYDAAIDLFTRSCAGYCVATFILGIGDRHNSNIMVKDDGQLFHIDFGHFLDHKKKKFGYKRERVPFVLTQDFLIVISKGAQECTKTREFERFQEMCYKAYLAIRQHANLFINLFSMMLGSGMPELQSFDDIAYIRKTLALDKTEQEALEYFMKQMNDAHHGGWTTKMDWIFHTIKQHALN
# Sequence (P27986 whole entry partner): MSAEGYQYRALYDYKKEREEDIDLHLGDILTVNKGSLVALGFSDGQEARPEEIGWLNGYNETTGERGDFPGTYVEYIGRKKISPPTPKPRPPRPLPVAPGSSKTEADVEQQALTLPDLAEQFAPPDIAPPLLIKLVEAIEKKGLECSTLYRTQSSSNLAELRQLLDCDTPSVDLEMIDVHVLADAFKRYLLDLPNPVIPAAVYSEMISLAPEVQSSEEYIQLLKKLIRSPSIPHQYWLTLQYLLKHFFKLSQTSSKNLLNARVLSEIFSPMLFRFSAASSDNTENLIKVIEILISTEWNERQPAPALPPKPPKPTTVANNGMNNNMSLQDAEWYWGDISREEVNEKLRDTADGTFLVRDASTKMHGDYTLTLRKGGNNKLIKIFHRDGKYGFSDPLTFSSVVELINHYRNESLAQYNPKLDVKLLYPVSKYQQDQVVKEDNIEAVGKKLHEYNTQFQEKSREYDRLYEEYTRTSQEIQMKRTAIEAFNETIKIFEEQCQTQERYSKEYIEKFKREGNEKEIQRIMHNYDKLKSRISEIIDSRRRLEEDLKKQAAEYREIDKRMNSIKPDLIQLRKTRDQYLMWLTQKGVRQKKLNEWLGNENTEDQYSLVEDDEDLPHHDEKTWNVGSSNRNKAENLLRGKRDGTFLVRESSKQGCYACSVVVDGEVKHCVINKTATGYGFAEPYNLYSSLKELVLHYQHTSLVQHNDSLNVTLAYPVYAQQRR
# test protocol: Fluorescence polarization assay for PI3K
# Assay type: biochemical
# experimental conditions: PI3Kα; read-out: PI3Kα IC50
Numbers only, as −log10 of the molar value.

Okay, here is my list. What is pIC50 for each of these?
1. CNC(=O)Nc1ccc(-c2nc(N3CCOCC3)c3cnn(C4CCN(Cc5ccc(C)cc5)CC4)c3n2)cc1 [Compound 675]
2. S=C(Nc1cccnc1)N1CCC(n2ncc3c(N4CCOCC4)nc(-c4ccc5[nH]ccc5c4)nc32)CC1
3. C=COC(=O)N1CCC(n2ncc3c(N4CCOCC4)nc(-c4ccc(NC(=O)NC)cc4)nc32)CC1
4. c1cc2cc(-c3nc(N4CCOCC4)c4cn[nH]c4n3)ccc2[nH]1 [Compound 248]
5. CNC(=O)Nc1ccc(-c2nc(N3CCOCC3)c3cnn(C4CCN(C(=O)c5ccc(C)cc5)CC4)c3n2)cc1 [Example 367]
6. CNc1ccc(-c2nc(N3CCOCC3)c3cnn(-c4ccccc4)c3n2)cc1

7.60
6.88
7.00
6.03
7.37
6.42

---

# target under test: PI3K (Homo sapiens)
# test protocol: Fluorescence polarization assay for PI3K
# Format: biochemical
# experimental conditions: PI3Kα; read-out: PI3Kα IC50
parameter: pIC50
One number for each entry, as −log10 of the molar value.

The following molecules have reported results that may help.
>>> recorded_measurement("O=C(CCN1CCCCC1)Nc1ccc(-c2nc(N3CCOCC3)c3cnn(-c4ccccc4)c3n2)cc1 [Compound 137]")
7.00
>>> recorded_measurement("CNC(=O)Nc1ccc(-c2nc(N3CCOCC3)c3cnn(C4CCN(C(=O)c5ccccc5Cl)CC4)c3n2)cc1 [Compound 601]")
7.10
>>> recorded_measurement("CCCOC(=O)N1CCC(n2ncc3c(N4CCOCC4)nc(-c4ccc(NC(=O)NCCF)cc4)nc32)CC1 [Compound 854]")
6.22
>>> recorded_measurement("COC(=O)Nc1ccc(-c2nc(N3CCOCC3)c3cnn(C4CCN(C(=O)c5ccc(F)cc5F)CC4)c3n2)cc1 [Example 449]")
6.10
>>> recorded_measurement("OCCN1CCC(n2ncc3c(N4CCOCC4)nc(-c4ccc5[nH]ccc5c4)nc32)CC1 [Compound 246]")
5.40

Okay, here is my list. What is pIC50 for each of these?
1. COC(=O)Nc1ccc(-c2nc(N3CCOCC3)c3cnn(C4CCN(CC(N)=O)CC4)c3n2)cc1 [Compound 456]
2. C=CCNC(=O)Nc1ccc(-c2nc(N3CCOCC3)c3cnn(C4CCN(Cc5ccccc5)CC4)c3n2)cc1 [Compound 509]
3. CNC(=O)Nc1ccc(-c2nc(N3CCOCC3)c3cn[nH]c3n2)cc1 [Compound 927]

1. 5.84
2. 6.57
3. 6.98

Okay, here is my list. What is pIC50 for each of these?
1. COCCN1CCC(n2ncc3c(N4CCOCC4)nc(-c4ccc5[nH]ccc5c4)nc32)CC1 [Compound 241]
2. COC(=O)Nc1ccc(-c2nc(N3CCOCC3)c3cnn(C4CCN(C(=O)c5ccc(F)cc5)CC4)c3n2)cc1 [Compound 689]
3. CNC(=O)Nc1ccc(-c2nc(N3CCOCC3)c3cnn(C4CCN(C(=O)c5cccc(C(F)(F)F)c5)CC4)c3n2)cc1 [Compound 605]
4. CC(C)C(=O)Nc1ccc(-c2nc(N3CCOCC3)c3cnn(C4CCN(Cc5ccccc5)CC4)c3n2)cc1 [Compound 186]
5. CNC(=S)Nc1ccc(-c2nc(N3CCOCC3)c3cnn(C4CCN(C(=O)OC)CC4)c3n2)cc1 [Compound 742]
6. CNC(=O)Nc1ccc(-c2nc(N3CCOCC3)c3cnn(C4CCCCO4)c3n2)cc1 (centres unmarked) [Example 235]
7. CC(C)(C)OC(=O)N1CCC[C@H](n2ncc3c(N4CCOCC4)nc(-c4ccc5[nH]ccc5c4)nc32)C1 [Compound 169]
8. NC(=O)c1cccc(-c2nc(N3CCOCC3)c3cnn(C4CCN(Cc5ccccc5)CC4)c3n2)c1 [Compound 82]

1. 5.30
2. 6.00
3. 7.12
4. 5.47
5. 6.82
6. 5.31
7. 6.47
8. 6.06

---

# target under test: PI3K (Homo sapiens, UniProt P42336)
# test protocol: Fluorescence polarization assay for PI3K;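 note: PI3K kinase reaction on PIP2 with ATP, 30-60 min, product sensed by GST-GRP with red probe in fluorescence polarization (mP), controls without enzyme and at zero time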
# Assay type: biochemical
# experimental conditions: PI3Kα; read-out: PI3Kα IC50
parameter: pIC50
Numbers only, as −log10 of the molar value.

The following compounds have reported results that may help.
>>> recorded_measurement("OCCN1CCC(n2ncc3c(N4CCOCC4)nc(-c4ccc5[nH]ccc5c4)nc32)CC1 [Compound 496]")
5.40
>>> recorded_measurement("COc1ccc(C(=O)N2CCC(n3ncc4c(N5CCOCC5)nc(-c5cccc(O)c5)nc43)CC2)cc1")
7.48
>>> recorded_measurement("Nc1ccc(-c2nc(N3CCOCC3)c3cnn(C4CCCCO4)c3n2)cc1 (stereo not shown) [Compound 934]")
5.31
>>> recorded_measurement("CNC(=O)Nc1ccc(-c2nc(N3CCOCC3)c3cnn(C4CCN(Cc5ccccc5Cl)CC4)c3n2)cc1 [Example 396]")
7.46
>>> recorded_measurement("CNS(=O)(=O)c1ccc(-c2nc(N3CCOCC3)c3cnn(C4CCN(Cc5ccccc5)CC4)c3n2)cc1")
5.33

Okay, here is my list. What is pIC50 for each of these?
1. c1ccc(CN2CCC(n3ncc4c(N5CCOCC5)nc(-c5ccc6c(c5)OCO6)nc43)CC2)cc1
2. c1ccc(CN2CCC(n3ncc4c(N5CCOCC5)nc(-c5cn[nH]c5)nc43)CC2)cc1
3. CCCOC(=O)N1CCC(n2ncc3c(N4CCOCC4)nc(-c4ccc(NC(=O)Nc5cccnc5)cc4)nc32)CC1
4. O=C(NCCF)Nc1ccc(-c2nc(N3CCOCC3)c3cnn(C4CCN(Cc5cccnc5)CC4)c3n2)cc1 [Example 315]
5. O=C(O)CCC(=O)Nc1ccc(-c2nc(N3CCOCC3)c3cnn(-c4ccccc4)c3n2)cc1
6. O=C(NO)Nc1ccc(-c2nc(N3CCOCC3)c3cnn(-c4ccccc4)c3n2)cc1 [Example 293]
7. Oc1cccc(-c2nc(N3CCOCC3)c3cnn(C4CCN(CC5CCCCC5)CC4)c3n2)c1

1. 5.93
2. 6.12
3. 7.42
4. 6.47
5. 6.61
6. 6.68
7. 6.97

Okay, here is my list. What is pIC50 for each of these?
1. CN(C)CC(=O)N1CCC(n2ncc3c(N4CCOCC4)nc(-c4ccc5[nH]ccc5c4)nc32)CC1
2. O=C(Nc1ccncc1)Nc1ccc(-c2nc(N3CCOCC3)c3cnn(C4CCN(C(=O)c5cccnc5)CC4)c3n2)cc1 [Example 344]
3. Nc1ccc(-c2nc(N3CCOCC3)c3cnn(C4CCN(C(=O)c5cccnc5)CC4)c3n2)c(F)c1 [Compound 460]
4. Cc1ccncc1C(=O)N1CCC(n2ncc3c(N4CCOCC4)nc(-c4ccc5[nH]ccc5c4)nc32)CC1

[5.84, 7.82, 5.39, 5.53]

---

# Tested on: breast line MDA468
# test protocol: In vitro cell culture growth assay (MTS), MDA468
# Type: cell-based, human
# experimental conditions: Homo sapiens, 72 h, MDA468 cells, three days after drug treatment
Field: IC50. Provide a value for each of the compounds that follow.
Answers are plain numbers, in nM.

The following compounds have reported results that may help.
>>> recorded_measurement("COCCN1CCC(n2ncc3c(N4CCOCC4)nc(-c4ccc5[nH]ccc5c4)nc32)CC1 [Compound 491]")
4200
>>> recorded_measurement("NCc1cccc(-c2nc(N3CCOCC3)c3cnn(-c4ccccc4)c3n2)c1")
3800
>>> recorded_measurement("NCC(=O)Nc1ccc(-c2nc(N3CCOCC3)c3cn[nH]c3n2)cc1 [Compound 528]")
11000
>>> recorded_measurement("CC(C)(C)OC(=O)N1CCC(n2ncc3c(N4CCOCC4)nc(-c4ccc(NC(=O)Nc5ccc(F)nc5)cc4)nc32)CC1")
750
>>> recorded_measurement("CCNC(=O)Nc1ccc(-c2nc(N3CCOCC3)c3cnn(C4CCN(C(=O)c5cccnc5)CC4)c3n2)cc1 [Example 307]")
200
>>> recorded_measurement("Nc1ccc(-c2nc(N3CCOCC3)c3cnn(-c4ccccc4)c3n2)nc1")
60000
>>> recorded_measurement("O=C1CCC(n2ncc3c(N4CCOCC4)nc(-c4ccc5[nH]ccc5c4)nc32)CC1")
1700
>>> recorded_measurement("O=C(NCCO)Nc1ccc(-c2nc(N3CCOCC3)c3cnn(C4CCN(C(=O)c5ccccc5)CC4)c3n2)cc1")
700

Okay, here is my list. What is IC50 for each of these?
1. c1ccc(CN2CCC(n3ncc4c(N5CCOCC5)nc(-c5ccc6[nH]ccc6c5)nc43)CC2)nc1
2. O=C(c1cccnc1)N1CCC(n2ncc3c(N4CCOCC4)nc(-c4ccc5[nH]ccc5c4)nc32)CC1
3. CCONC(=O)Nc1ccc(-c2nc(N3CCOCC3)c3cnn(C4CCN(Cc5ccccc5)CC4)c3n2)cc1 [Compound 533]
4. CC(C)(C)OC(=O)N1CCC(n2ncc3c(N4CCOCC4)nc(-c4ccc(NC(=O)Nc5ccon5)cc4)nc32)CC1

1: 2100; 2: 1100; 3: 160; 4: 490
